Reported NADPH fluorescence slope values for a set of molecules
target: Voltage-gated potassium channel subunit beta-2 (Rattus norvegicus) (UniProt P62483); experiment: KvBeta positive modulators, primary screen, biochemical, NADPH fluorescence (AID 623); conditions: Recombinant KvBeta, NADPH fluorescence decrease slope, 10 min; at 10 µM; stronger effect = lower value;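 further: fluorescence intensity change per second fitted from 20 to 320 s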
Sequence (P62483 whole entry, looked up): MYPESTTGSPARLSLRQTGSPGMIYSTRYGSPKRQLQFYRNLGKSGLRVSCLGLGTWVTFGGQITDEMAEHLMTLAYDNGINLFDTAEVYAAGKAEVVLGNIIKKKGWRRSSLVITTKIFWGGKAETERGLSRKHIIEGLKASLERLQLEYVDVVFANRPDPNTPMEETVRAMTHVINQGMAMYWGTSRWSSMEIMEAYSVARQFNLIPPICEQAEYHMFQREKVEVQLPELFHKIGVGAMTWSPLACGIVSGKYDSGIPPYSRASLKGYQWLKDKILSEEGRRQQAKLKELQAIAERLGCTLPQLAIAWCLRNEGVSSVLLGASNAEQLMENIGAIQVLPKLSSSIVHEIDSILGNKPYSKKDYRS
Calls of active or inactive are those of the source.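 How the source made its calls: active means NADPH fluorescence slope more negative than the mean of all samples by about 3 SD, 99.7% confidence; inactive means the rest.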

// Cn1nnnc1SCC(=O)NCC(=O)c1ccccc1 : NADPH fluorescence slope value = -6.9e-05 (inactive)

// O=C1C2ON(c3ccccc3)C(c3ccncc3)C2C(=O)N1c1ccccc1 (stereo not drawn) : NADPH fluorescence slope value = -0.000134 (inactive)

// O=C(CNC1C(=O)Nc2ccccc21)Sc1ccccc1 (stereo not drawn) : NADPH fluorescence slope value = -1.8e-06 (inactive)

Continuing:
// C=C1C2(C(=O)Nc3nccs3)CCC(C2)C1(C)C (stereo not drawn) : NADPH fluorescence slope value = -0.000131 (inactive)

// CC(=O)OC(C)C[N+](C)(C)C (stereo not drawn) : NADPH fluorescence slope value = -5.5e-06 (inactive)

// CC(C)OC(=O)C(C)(C)Oc1ccc(C(=O)c2ccc(Cl)cc2)cc1 : NADPH fluorescence slope value = 1.6e-05 (inactive)

// COCCN(C(=O)Nc1ccccc1)c1ccccc1C : NADPH fluorescence slope value = 6.1e-06 (inactive)

// CC(Sc1nc(N2CCCCC2)c2c(c1C#N)CCCC2)C(=O)O (stereo not drawn) : NADPH fluorescence slope value = 1.2e-06 (inactive)

###

assay: inhibitors of TNFa-induced NFkB p65 translocation, primary screen, imaging, HUVEC, MLSMR starter and 10KST1 sets (AID 438); settings: HUVEC TNFa-induced p65 nuclear translocation; measured here: nuclei count (cytotoxicity indicator), at 2.08 µM;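 further: compound added about 3h40 before a 20 min TNFalpha stimulation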
Reported cell count values for a set of molecules
Form: value (number only, do not type unit).

Guide cases for cell count, answers given:
// Cc1ccc(C2/C(=C(\O)c3cnn(-c4ccccc4)c3C)C(=O)C(=O)N2CCN(C)C)o1 (stereo not given) : cell count value = 488

// N#C/C(C(=O)NCc1ccccc1)=C1\SC(CCO)C(=O)N1c1ccccc1 (stereo not given) : cell count value = 501

// CCN(CC)S(=O)(=O)c1cccc2c(N(C)C)cccc12 : cell count value = 503

// Cc1ccc(-c2nnc(-c3cccc(Br)c3)o2)cc1 : cell count value = 512

Continuing:
// O=S(=O)(c1ccc2ccccc2c1)N(CC(O)CN1CCOCC1)c1ccccc1 (stereo not given) : cell count value = 576

// Cc1ccc(CC2CC(=O)N(c3ccc4c(c3)OCCO4)C2=O)cc1 (stereo not given) : cell count value = 482

// CSc1nc(O)c(Cc2ccccc2)c(=O)[nH]1 : cell count value = 543

###

biological target: Dual specificity protein phosphatase 6 (Homo sapiens); assay: DUSP6 inhibitors restoring Erk phosphorylation by chemical complementation, primary imaging in DUSP6-transfected HeLa (AID 609); details: HeLa MKP-3 transfected, phospho-Erk imaging KS statistic; at 10 µM; stronger effect = higher value; cells stimulated with TPA for 15 min;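 on inhibition: phospho-Erk level distribution per well compared with pooled transfected vehicle control wells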
property: inhibition (%)
Just the number in %, nothing appended.

// CC(C(=O)N1CCCCC1)N1C(=O)c2ccccc2C1=O (stereo unspecified) : inhibition value = 17.5

// c1ccc2c(CC3=NCCN3)cccc2c1 : inhibition value = 9.37

// Cc1cc(C)nc(NC(=O)c2ccc(OC(C)C)cc2)n1 : inhibition value = 17

// COc1ccc(-n2c(=O)c3c4c(sc3n3c(C)nnc23)CC(C)CC4)cc1 (stereo unspecified) : inhibition value = -0.608

// COc1cc(-c2cc(C(F)(F)F)n3ncc(C(=O)O)c3n2)cc(OC)c1OC : inhibition value = 11.3

Continuing:
// N#CCCN(CCC#N)c1nnc(-c2ccccc2)s1 : inhibition value = 17

###

target: Voltage-gated potassium channel subunit beta-2 (Rattus norvegicus); assay: KvBeta positive modulators, primary screen, biochemical, NADPH fluorescence (AID 623); conditions: Recombinant KvBeta, NADPH fluorescence decrease slope, 10 min; at 10 µM; stronger effect = lower value;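 further: fluorescence intensity change per second fitted from 20 to 320 s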
property: NADPH fluorescence slope
Form: value (number only, do not type unit).

Guide cases for NADPH fluorescence slope, answers given:
// CSc1nnc2n(C3CCCCC3)c(=O)c3c4c(sc3n12)CCCC4 : NADPH fluorescence slope value = -0.000304

// CCOC(=O)C1CCN(c2nc3ccccc3nc2C(C#N)C(=O)OC(C)C)CC1 (stereo not drawn) : NADPH fluorescence slope value = -2.3e-08

Now for the molecule whose NADPH fluorescence slope we want.
// CC(=O)NC1(C(F)(F)F)C(=O)Nc2c1c(=O)n(C)c(=O)n2C (stereo not drawn) : NADPH fluorescence slope value = -4.1e-05

###

test: DUSP6 inhibitors restoring Erk phosphorylation by chemical complementation, primary imaging in DUSP6-transfected HeLa (AID 609); settings: HeLa MKP-3 transfected, phospho-Erk imaging KS statistic; measured here: nuclear c-Myc green intensity z-score; at 10 µM; cells stimulated with TPA for 15 min
Reported z-score values for a set of compounds

Guide cases for z-score, answers given:
// Cc1cc(-c2ccccc2)nnc1NCCN1CCOCC1 : z-score value = 0.88

// Nc1ccc2c(c1)N1CCN=C1S2 : z-score value = -0.44

Continuing:
// COc1cccc(-c2nn3c(-c4ccccn4)nnc3s2)c1 : z-score value = -0.624

// CCOC(=O)c1c(C)cccc1OCC(N)=O : z-score value = -0.623

###

Reported inhibition values for a set of compounds
assay: inhibitors of E-selectin induction by TNFa, primary screen, imaging, HUVEC, immunofluorescence, MLSMR starter and 10KST1 sets (AID 487); conditions: HUVEC TNFalpha-induced E-selectin immunofluorescence imaging, at 2 µM; stronger effect = higher value;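 further: signal is fraction of cell area covered by stained E-selectin grains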
Just the number in %, nothing appended.

Guide cases for inhibition, answers given:
// N#Cc1c(SCC(=O)O)nc(N2CCCCC2)c2c1CCCC2 : inhibition value = -50

// CCN(CC)CCCn1c(C)cc2c(c1=O)C(c1cccc(Cl)c1)C(C#N)=C(N)O2 (stereo not drawn) : inhibition value = -49.3

// CCCOc1ccc(C2NC(=O)NC2=O)cc1 (stereo not drawn) : inhibition value = -260

// COc1cccc(/C(O)=C2/C(=O)C(=O)N(CCCN(C)C)C2c2cccc(Cl)c2)c1 (stereo not drawn) : inhibition value = -326

// CNc1nc(C)c(C#N)cc1C(C)=O : inhibition value = 8.2

Now for the compound whose inhibition we want.
// C=CCn1c(=S)[nH]c2nc3c(cc2c1=O)CCCC3 : inhibition value = -44.7

###

test: DUSP6 inhibitors restoring Erk phosphorylation by chemical complementation, primary imaging in DUSP6-transfected HeLa (AID 609); settings: HeLa MKP-3 transfected, phospho-Erk imaging KS statistic; measured here: nuclear pErk red intensity z-score; at 10 µM; stronger effect = higher value; cells stimulated with TPA for 15 min
property: z-score
Form: value (number only, do not type unit).

Guide cases for z-score, answers given:
// CCOC(=O)c1nc2nc(C)c(Cl)c(=O)n2[nH]1 : z-score value = -0.252

// CCCCc1ccc(NC(=O)CSC2=C(C#N)C(c3ccco3)C3=C(CCCC3=O)N2)cc1 (configuration not stated) : z-score value = -0.943

// CCN1CCc2c(C#N)c(NCc3ccccc3)nc(NCCO)c2C1 : z-score value = -1.03

// Cc1nc(N2CCN(Cc3ccccc3)CC2)c(C#N)c2c1COC(C)(C)C2 : z-score value = 0.193

// Nc1nc(Cl)nc2c1ncn2[C@@H]1O[C@H](CO)[C@@H](O)[C@H]1O : z-score value = -0.425

// CC(C)CCNC(=O)[C@H](CC(C)C)NC(=O)[C@H]1O[C@@H]1C(=O)O : z-score value = 0.76

Continuing:
// CC(NC(=O)Nc1nccs1)(C(F)(F)F)C(F)(F)F : z-score value = -0.913

###

assay: inhibitors of Sendai virus-induced IRF3 signaling, primary screen, TLR/RLR signaling modifier project, cell-based, Sendai virus stimulus, luciferase, 10K MLSCN set (AID 602276); conditions: HEK293 RL24 IRF3 luciferase reporter, at 10 µM, stronger effect = higher value;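 further: firefly luciferase from ISG56 promoter only with Renilla not read in this screen; 0% = Sendai virus plus DMSO and 100% = medium plus DMSO without virus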
property: inhibition (%)
Just the number in %, nothing appended.

Guide cases for inhibition, answers given:
// CCOc1ccc(CSC(CC(=O)O)C(=O)O)cc1 (stereo not drawn) : inhibition value = 13.1

// Nc1nc(Cl)nc2c1ncn2[C@@H]1O[C@H](CO)[C@@H](O)[C@H]1O : inhibition value = 16.8

// O=C(O)CC1Sc2nc3ccccc3n2C1=O (stereo not drawn) : inhibition value = 13.8

// CCN(CC)CCOC(=O)C(c1ccccc1)c1ccccc1 : inhibition value = 9.86

// Cn1c2c(c(=O)n(C)c1=O)C(NC(=O)C(C)(C)C)(C(F)(F)F)C(=O)N2 (stereo not drawn) : inhibition value = 14.7

Continuing:
// CC(CN1CCN(C)CC1)OC(=O)c1ccc(Cl)cc1Cl (stereo not drawn) : inhibition value = 11.3

// CCCCCCCCCCCCCCCC(O)C(N)CO (stereo not drawn) : inhibition value = 18.8

// COC(=O)c1ccc(-c2sc3nc(N4CCOCC4)c4c(c3c2N)CCCC4)o1 : inhibition value = 13

// NS(=O)(=O)c1cc2c(cc1Cl)NC(C(Cl)Cl)NS2(=O)=O (stereo not drawn) : inhibition value = 13.9

// Cc1nnc(SCC(=O)N2CCC(C(N)=O)CC2)s1 : inhibition value = 7.88
